Origin of measurements: the Kinase Knowledgebase extract (Sharma et al. 2016)

pIC50: −log10 of the molar value.
// endpoint pIC50 / system EGFR (UniProt P00533)

Here are 3 molecules together with their reported answers.
| molecule | pIC50 |
| --- | --- |
| COCCN1CCC(Nc2ccc3c(c2)/C(=C(\c2ccc(C(F)(F)F)nc2)c2ncc[nH]2)C(=O)N3)CC1 | < 5.30 |
| COCCN1CCC(Nc2ccc3c(c2)/C(=C(\c2ccc(F)cc2)c2ncc[nH]2)C(=O)N3)CC1 | < 5.30 |
| COCCN1CCC(Nc2ccc3c(c2)/C(=C(\c2ccc(C)c(F)c2)c2ncc[nH]2)C(=O)N3)CC1 | 6.30 to 7.30 |

The reported value for CCN1CCC(N(C)c2ccc3c(c2)/C(=C(\c2cccc(Cl)c2)c2nc4ccccc4[nH]2)C(=O)N3)CC1 in terms of pIC50 is 5.30 to 6.30

The reported value for CCN1CCC(Nc2ccc3c(c2)/C(=C(\c2cccc(C(=N)N)c2)c2nc4ccccc4[nH]2)C(=O)N3)CC1 in terms of pIC50 is 5.30 to 6.30

The reported value for CCN1CCC(Nc2ccc3c(c2)/C(=C(\c2ccc(F)cc2)c2ncc[nH]2)C(=O)N3)CC1 in terms of pIC50 is 5.30 to 6.30

The reported value for COCCN1CCC(Nc2ccc3c(c2)/C(=C(\c2ccc(F)c(F)c2)c2ncc[nH]2)C(=O)N3)CC1 in terms of pIC50 is < 5.30

The reported value for CCN1CCC(Nc2ccc3c(c2)/C(=C(\c2ccc(C(F)(F)F)c(F)c2)c2ncc[nH]2)C(=O)N3)CC1 in terms of pIC50 is 6.30 to 7.30

The reported value for CCN1CCC(Nc2ccc3c(c2)/C(=C(\c2ccc(Cl)cc2)c2nc4ccccc4[nH]2)C(=O)N3)CC1 in terms of pIC50 is 6.30 to 7.30

The reported value for CCN1CCC(Nc2ccc3c(c2)/C(=C(/c2cc(F)cc(F)c2)c2nc4cc(F)ccc4[nH]2)C(=O)N3)CC1 in terms of pIC50 is < 5.30

The reported value for CCN1CCC(Nc2ccc3c(c2)/C(=C(\c2ccc(F)c(F)c2)c2ncc[nH]2)C(=O)N3)CC1 in terms of pIC50 is 5.30 to 6.30

The reported value for O=C1Nc2ccc(NC3CC4CCC(C3)N4)cc2/C1=C(\c1ccccc1)c1nc2ccccc2[nH]1 (configuration not stated) in terms of pIC50 is 5.30 to 6.30

----------
molecular target: EGFR (UniProt P00533)
Sequence (P00533 whole entry, looked up): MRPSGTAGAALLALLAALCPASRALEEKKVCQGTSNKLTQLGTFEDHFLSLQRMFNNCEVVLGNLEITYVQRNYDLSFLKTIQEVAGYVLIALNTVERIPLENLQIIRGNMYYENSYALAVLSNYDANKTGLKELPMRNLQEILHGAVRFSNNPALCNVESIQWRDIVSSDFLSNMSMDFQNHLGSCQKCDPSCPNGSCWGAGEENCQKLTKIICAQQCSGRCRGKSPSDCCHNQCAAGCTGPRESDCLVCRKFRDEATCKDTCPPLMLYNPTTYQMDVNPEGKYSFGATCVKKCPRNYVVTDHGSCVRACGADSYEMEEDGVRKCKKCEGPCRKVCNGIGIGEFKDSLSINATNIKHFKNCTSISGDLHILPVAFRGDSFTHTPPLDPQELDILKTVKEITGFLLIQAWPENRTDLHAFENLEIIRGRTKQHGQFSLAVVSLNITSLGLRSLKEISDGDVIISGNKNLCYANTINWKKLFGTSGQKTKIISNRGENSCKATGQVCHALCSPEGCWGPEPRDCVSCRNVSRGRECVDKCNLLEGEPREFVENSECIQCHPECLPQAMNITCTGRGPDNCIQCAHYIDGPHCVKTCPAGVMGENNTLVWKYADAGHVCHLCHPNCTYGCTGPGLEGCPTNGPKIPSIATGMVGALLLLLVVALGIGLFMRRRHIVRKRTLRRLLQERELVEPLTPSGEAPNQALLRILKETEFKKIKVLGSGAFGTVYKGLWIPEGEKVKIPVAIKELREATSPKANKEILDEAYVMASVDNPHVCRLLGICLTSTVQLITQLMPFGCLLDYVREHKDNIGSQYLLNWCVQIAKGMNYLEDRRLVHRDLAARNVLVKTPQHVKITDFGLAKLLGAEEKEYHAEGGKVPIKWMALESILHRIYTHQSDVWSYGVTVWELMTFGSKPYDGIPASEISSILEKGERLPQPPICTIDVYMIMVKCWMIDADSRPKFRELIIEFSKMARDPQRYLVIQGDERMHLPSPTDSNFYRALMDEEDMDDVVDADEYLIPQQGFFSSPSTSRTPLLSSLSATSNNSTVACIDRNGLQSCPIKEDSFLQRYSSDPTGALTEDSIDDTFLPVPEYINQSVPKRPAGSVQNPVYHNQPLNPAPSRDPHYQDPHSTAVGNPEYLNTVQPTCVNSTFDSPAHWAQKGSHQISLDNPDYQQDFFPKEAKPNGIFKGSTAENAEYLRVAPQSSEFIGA
pIC50: −log10 of the molar value.
property name: pIC50

Here are 5 compounds together with their reported answers.
| smiles structure | pIC50 |
| --- | --- |
| CCN1CCC(Nc2ccc3c(c2)/C(=C(\c2cccc(F)c2)c2nc(-c4ccccc4)c[nH]2)C(=O)N3)CC1 | 6.30 to 7.30 |
| CCN1CCC(Nc2ccc3c(c2)/C(=C(\c2ccc(C(F)(F)F)c(F)c2)c2nc(C)c[nH]2)C(=O)N3)CC1 | > 7.30 |
| CS(=O)(=O)N1CCC(Nc2ccc3c(c2)/C(=C(\c2ccccc2)c2nc4ccccc4[nH]2)C(=O)N3)CC1 | 5.30 to 6.30 |
| O=C1Nc2ccc(NC3CCN(CCN4CCCC4)CC3)cc2/C1=C(\c1cccc(F)c1)c1ncc[nH]1 | < 5.30 |
| COCCN1CCC(Oc2ccc3c(c2)/C(=C(\c2cccc(Cl)c2)c2nc4ccccc4[nH]2)C(=O)N3)CC1 | 6.30 to 7.30 |

The reported value for COCCN1CCC(Nc2ccc3c(c2)/C(=C(\c2cccc(Cl)c2)c2nc4ccccc4[nH]2)C(=O)N3)CC1 in terms of pIC50 is 5.30 to 6.30

The reported value for COCCN1CCC(Nc2ccc3c(c2)/C(=C(\c2ccc(F)cc2)c2nc4ccccc4[nH]2)C(=O)N3)CC1 in terms of pIC50 is 5.30 to 6.30

The reported value for CCN1CCC(Nc2ccc3c(c2)/C(=C(/c2ncc[nH]2)c2cccc(F)c2F)C(=O)N3)CC1 in terms of pIC50 is 6.30 to 7.30

The reported value for CCN1CCC(Nc2ccc3c(c2)/C(=C(\c2cccc(C#N)c2)c2nc4ccccc4[nH]2)C(=O)N3)CC1 in terms of pIC50 is 5.30 to 6.30

The reported value for CCN1CCC(Oc2ccc3c(c2)/C(=C(\c2cc(F)cc(F)c2)c2nc4ccccc4[nH]2)C(=O)N3)CC1 in terms of pIC50 is 5.30 to 6.30

The reported value for COCCN1CCC(Nc2ccc3c(c2)/C(=C(\c2ccc(Cl)cc2)c2ncc[nH]2)C(=O)N3)CC1 in terms of pIC50 is < 5.30

The reported value for CCN1CCC(Nc2ccc3c(c2)/C(=C(\c2cccc(Cl)c2)c2ncc[nH]2)C(=O)N3)CC1 in terms of pIC50 is 6.30 to 7.30
